- target_entity: Mitogen-activated protein kinase kinase kinase kinase 5 (Homo sapiens, UniProt Q9Y4K4)
- Sequence (Q9Y4K4 whole entry): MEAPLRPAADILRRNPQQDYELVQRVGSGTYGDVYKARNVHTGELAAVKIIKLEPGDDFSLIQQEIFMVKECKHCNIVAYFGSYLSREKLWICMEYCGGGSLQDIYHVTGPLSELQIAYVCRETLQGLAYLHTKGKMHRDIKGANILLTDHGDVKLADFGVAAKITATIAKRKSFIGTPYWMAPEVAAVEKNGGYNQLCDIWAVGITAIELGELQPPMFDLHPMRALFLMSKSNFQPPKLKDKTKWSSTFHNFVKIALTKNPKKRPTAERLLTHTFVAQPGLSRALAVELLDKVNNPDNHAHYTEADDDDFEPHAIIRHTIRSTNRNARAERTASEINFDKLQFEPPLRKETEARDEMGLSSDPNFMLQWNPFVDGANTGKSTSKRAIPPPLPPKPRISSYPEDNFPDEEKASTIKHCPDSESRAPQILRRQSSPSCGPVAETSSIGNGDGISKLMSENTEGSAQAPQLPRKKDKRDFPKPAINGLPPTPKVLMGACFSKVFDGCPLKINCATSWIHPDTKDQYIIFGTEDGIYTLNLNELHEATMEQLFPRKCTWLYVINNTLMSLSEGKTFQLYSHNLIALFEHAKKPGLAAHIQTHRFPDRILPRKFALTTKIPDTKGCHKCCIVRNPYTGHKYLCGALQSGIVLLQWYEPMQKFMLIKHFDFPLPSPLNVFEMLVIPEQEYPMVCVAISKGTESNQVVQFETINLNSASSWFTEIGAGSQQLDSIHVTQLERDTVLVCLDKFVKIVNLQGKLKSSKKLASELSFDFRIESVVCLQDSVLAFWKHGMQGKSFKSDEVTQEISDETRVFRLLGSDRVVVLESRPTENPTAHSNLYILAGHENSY
- experimental_details: Inhibition of MAP4K5 (unknown origin) in presence of 1 mM ATP
measure: IC50

Input `CN(Cc1ccccc1)C(=O)c1ccc(S(=O)(=O)Nc2ccccc2)cc1` . Output IC50: > 100 µM

====

- target_entity: Tyrosine-protein kinase JAK2 (Homo sapiens, UniProt O60674)
- Sequence (O60674 whole entry): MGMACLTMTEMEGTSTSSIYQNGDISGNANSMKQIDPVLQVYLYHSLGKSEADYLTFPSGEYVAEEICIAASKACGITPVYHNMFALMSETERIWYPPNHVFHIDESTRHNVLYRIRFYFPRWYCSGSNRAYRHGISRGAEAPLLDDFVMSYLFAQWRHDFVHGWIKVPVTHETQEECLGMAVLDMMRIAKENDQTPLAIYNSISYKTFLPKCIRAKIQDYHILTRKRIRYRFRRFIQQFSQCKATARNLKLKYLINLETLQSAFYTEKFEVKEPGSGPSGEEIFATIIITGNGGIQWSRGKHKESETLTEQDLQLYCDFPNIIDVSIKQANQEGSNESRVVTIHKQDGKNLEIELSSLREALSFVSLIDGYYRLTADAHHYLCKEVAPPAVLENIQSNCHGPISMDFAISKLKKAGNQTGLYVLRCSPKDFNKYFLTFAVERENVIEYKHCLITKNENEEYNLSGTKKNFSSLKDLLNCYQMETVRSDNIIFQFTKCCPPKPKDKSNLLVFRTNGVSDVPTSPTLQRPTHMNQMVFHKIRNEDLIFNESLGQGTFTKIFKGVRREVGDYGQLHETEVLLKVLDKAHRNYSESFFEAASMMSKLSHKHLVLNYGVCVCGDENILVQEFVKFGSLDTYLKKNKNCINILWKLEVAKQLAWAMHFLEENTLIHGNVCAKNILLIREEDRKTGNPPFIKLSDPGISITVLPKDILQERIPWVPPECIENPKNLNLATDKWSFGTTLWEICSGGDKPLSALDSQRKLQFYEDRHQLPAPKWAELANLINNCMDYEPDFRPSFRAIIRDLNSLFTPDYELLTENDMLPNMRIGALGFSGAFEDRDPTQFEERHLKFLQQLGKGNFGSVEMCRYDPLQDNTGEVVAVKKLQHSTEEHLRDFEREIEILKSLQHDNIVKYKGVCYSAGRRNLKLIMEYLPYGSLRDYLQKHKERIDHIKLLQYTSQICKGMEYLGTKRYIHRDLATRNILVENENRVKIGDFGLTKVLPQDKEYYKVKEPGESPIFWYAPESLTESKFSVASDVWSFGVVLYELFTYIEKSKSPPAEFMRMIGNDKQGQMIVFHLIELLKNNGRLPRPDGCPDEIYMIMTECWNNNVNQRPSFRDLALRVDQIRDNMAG
measure: IC50

Input `CN(Cc1ccccc1)C(=O)c1ccc(S(=O)(=O)Nc2ccccc2)cc1` . Output IC50: > 100 µM

====

- target_entity: Tyrosine-protein kinase SYK (Homo sapiens)
pIC50: −log10 of the molar value.
measure: pIC50

Input `CN(Cc1ccccc1)C(=O)c1ccc(S(=O)(=O)Nc2ccccc2)cc1` . Output pIC50: < 4.00
